- TGT: human ether-à-go-go-related gene (hERG) potassium channel (human, UniProt Q12809)
- Sequence (Q12809 whole entry, looked up): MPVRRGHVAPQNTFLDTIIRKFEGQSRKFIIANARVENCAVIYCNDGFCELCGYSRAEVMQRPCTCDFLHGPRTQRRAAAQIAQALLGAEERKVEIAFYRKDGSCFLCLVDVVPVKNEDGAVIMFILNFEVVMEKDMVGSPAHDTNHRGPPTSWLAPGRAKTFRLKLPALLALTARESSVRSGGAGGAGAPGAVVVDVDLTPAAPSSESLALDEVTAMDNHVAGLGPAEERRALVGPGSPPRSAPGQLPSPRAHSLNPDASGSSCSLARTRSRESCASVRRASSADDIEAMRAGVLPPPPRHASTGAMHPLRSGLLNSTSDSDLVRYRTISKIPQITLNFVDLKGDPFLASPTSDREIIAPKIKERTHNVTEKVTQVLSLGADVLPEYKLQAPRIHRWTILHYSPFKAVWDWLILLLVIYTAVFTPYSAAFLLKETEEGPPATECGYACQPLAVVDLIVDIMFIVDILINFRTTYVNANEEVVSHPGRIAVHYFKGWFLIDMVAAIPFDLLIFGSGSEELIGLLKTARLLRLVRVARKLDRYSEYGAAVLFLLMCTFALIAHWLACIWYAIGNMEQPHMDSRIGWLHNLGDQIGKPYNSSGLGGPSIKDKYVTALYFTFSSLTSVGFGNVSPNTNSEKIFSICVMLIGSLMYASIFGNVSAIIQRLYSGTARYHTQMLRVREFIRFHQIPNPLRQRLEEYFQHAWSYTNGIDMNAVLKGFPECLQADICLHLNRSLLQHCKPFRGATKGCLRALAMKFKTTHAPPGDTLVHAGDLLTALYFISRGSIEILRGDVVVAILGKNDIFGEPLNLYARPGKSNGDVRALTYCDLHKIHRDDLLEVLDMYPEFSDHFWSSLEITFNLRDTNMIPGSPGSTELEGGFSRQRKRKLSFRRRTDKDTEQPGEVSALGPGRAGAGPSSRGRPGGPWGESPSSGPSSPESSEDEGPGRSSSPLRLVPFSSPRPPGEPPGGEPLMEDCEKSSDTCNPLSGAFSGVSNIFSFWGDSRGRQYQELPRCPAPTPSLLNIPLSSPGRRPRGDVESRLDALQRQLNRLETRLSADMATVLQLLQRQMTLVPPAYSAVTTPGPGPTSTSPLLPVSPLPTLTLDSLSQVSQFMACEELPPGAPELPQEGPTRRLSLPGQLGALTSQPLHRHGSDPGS
- EXPERIMENTAL_DETAILS: primary screen, population patch clamp on CHO cells stably expressing hERG; higher = less effect of the substance
The campaign covered roughly 310,000 compounds. About 2,200 (0.71%) showed an effect of 50% or more. The effect is printed as a negative number. The full list was thinned out, with strong results kept by preference.
QUANTITY: hERG current change (%, negative = inhibition) at 1uM
Write the numeric value and follow it with the unit.

Guide cases for hERG current change (%, negative = inhibition) at 1uM, answers given:
COC(=O)C1C(=O)C2=C(CC1C)NC(C)=C(C(=O)OCc1ccc(OC)cc1)C2c1ccc(C)o1 (stereo not drawn) :: 0.03%
CCC(=O)OC1(c2ccccc2)C(C)CN(C)CC1C.Cl (stereo not drawn) :: 8.82%
O=C(c1cc(Br)ccc1Cl)N1CCN(c2ccc(N3CCOCC3)nn2)CC1 :: 5.71%
N#Cc1ccc(Cn2ccnc2C(=O)Nc2ccccc2)cc1 :: -86.8%
O=C(Nc1ccc(NC(=O)c2cccc([N+](=O)[O-])c2)cc1)c1cccc([N+](=O)[O-])c1 :: 9.44%
Cc1ccc2[nH]c(=O)c(CN(Cc3nnnn3Cc3ccccc3)C3CCCC3)cc2c1 :: 11.9%

// recorded hERG current change (%, negative = inhibition) at 1uM for `Cc1ccc(Cn2ccnc2C(=O)Nc2ccccc2)cc1` : 9.01%

// recorded hERG current change (%, negative = inhibition) at 1uM for `O=[N+]([O-])c1nn(-c2ccccc2)n(O)c1=NC1CCN(Cc2ccccc2)CC1` : -16%

// recorded hERG current change (%, negative = inhibition) at 1uM for COc1cccc(-c2nc(CS(=O)(=O)CC(=O)NCCCN3CC(C)CC(C)C3)c(C)o2)c1 (stereo not drawn) : -5.41%

---

- TGT: human ether-à-go-go-related gene (hERG) potassium channel (human)
- EXPERIMENTAL_DETAILS: primary screen, population patch clamp on CHO cells stably expressing hERG; higher = less effect of the substance
Among all 310,000 compounds or so, about 2,200 (0.71%) showed an effect of 50% or more. Effects have a minus sign here. The entries come from a sample that favours strong results as a whole.
Examples of compounds with documented hERG current change (%, negative = inhibition) at 1uM follow.
Hi! Could you send only the number? It should be in %, unit omitted.

Cc1c(C(=O)OCC(=O)Nc2ccc(C(N)=O)cc2)cccc1[N+](=O)[O-] :: 11
Cn1c(SCC(=O)Nc2cccc(F)c2)nnc1-c1cccnc1 :: -6.1
Cc1ccc(NC(=O)C(C)Sc2nnc(-c3cccnc3)n2-c2ccccc2)cc1 (centres unmarked) :: -86.2
Cc1ccc(NC(=O)C(C)Sc2nnc(-c3cccnc3)o2)cc1 (centres unmarked) :: 14
Cn1c(SCC(=O)Nc2ccc(F)cc2)nnc1-c1cccnc1 :: -2.78

// recorded hERG current change (%, negative = inhibition) at 1uM for `O=C(CSc1nnc(-c2cccnc2)n1-c1ccccc1)Nc1ccccc1` : -44.9

---

- TGT: human ether-à-go-go-related gene (hERG) potassium channel (human)
- EXPERIMENTAL_DETAILS: primary screen, population patch clamp on CHO cells stably expressing hERG; higher = less effect of the substance
In all, about 310,000 compounds went through this assay and about 2,200 (0.71%) showed an effect of 50% or more. Effects have a minus sign here. For the sample, strong results were picked, then their nearest neighbours and some compounds at random.
Examples of compounds with documented hERG current change (%, negative = inhibition) at 1uM follow.
Hi! Could you send only the number? It should be in %, unit omitted.

COc1ccccc1C(=O)Nc1ccnn1C1CCN(CCCC2CCCC2)CC1 :: -93.2

// recorded hERG current change (%, negative = inhibition) at 1uM for `O=C(Nc1cccc(-c2cccc(F)c2)c1)C1CCN(C2CCOCC2)CC1` : -67.8

// recorded hERG current change (%, negative = inhibition) at 1uM for `COc1ccc(-c2nnn(Cc3nc(N)nc(N4CCOCC4)n3)n2)cc1OC` : 3.65

// recorded hERG current change (%, negative = inhibition) at 1uM for `CCn1cc(CN2CCC(C(=O)Nc3cccc(-c4cccc(F)c4)c3)CC2)cn1` : -29.2

---

- TGT: human ether-à-go-go-related gene (hERG) potassium channel (human, UniProt Q12809)
- EXPERIMENTAL_DETAILS: primary screen, population patch clamp on CHO cells stably expressing hERG; higher = less effect of the substance
About 2,200 (0.71%) of roughly 310,000 compounds showed an effect of 50% or more. Effects have a minus sign here. The full list was thinned out, with strong results kept by preference.
Examples of molecules with documented hERG current change (%, negative = inhibition) at 1uM follow.
Hi! Could you send only the number? It should be in %, unit omitted.

Guide cases for hERG current change (%, negative = inhibition) at 1uM, answers given:
Cc1ccc(/C=C2/SC(=Nc3ccc(F)cc3)NC2=O)s1 :: 13
Nc1ncnc(Nc2c(F)cccc2F)n1 :: 7.67
Cc1cccc(C)c1NC(=O)NC1(C(=O)NCc2ccncc2)CCCCC1 :: 12.6
COc1ccc2[nH]c(C)c(C(=O)CN3CCN(C/C=C/c4ccccc4)CC3)c2c1 :: 5.17
O=C(NC1CCCCC1)NC1CCN(S(=O)(=O)c2ccc3c(c2)OCCO3)CC1 :: 9.08

// recorded hERG current change (%, negative = inhibition) at 1uM for `Cc1[nH]c2ccccc2c1C(=O)CN1CCCC1` : 7.66

// recorded hERG current change (%, negative = inhibition) at 1uM for `CCOC(=O)N1CCN(CC(=O)Nc2c(C(=O)OC)[nH]c3ccccc23)CC1` : 7.01

---

- TGT: human ether-à-go-go-related gene (hERG) potassium channel (human, UniProt Q12809)
- EXPERIMENTAL_DETAILS: primary screen, population patch clamp on CHO cells stably expressing hERG; higher = less effect of the substance
In all, about 310,000 compounds went through this assay and about 2,200 (0.71%) showed an effect of 50% or more. Effects have a minus sign here. For the sample, strong results were picked, then their nearest neighbours and some compounds at random.
Examples of compounds with documented hERG current change (%, negative = inhibition) at 1uM follow.
Hi! Could you send only the number? It should be in %, unit omitted.

Guide cases for hERG current change (%, negative = inhibition) at 1uM, answers given:
Cc1nonc1OCCN1CCN(c2ccc([N+](=O)[O-])cc2)CC1 :: -100
OC(COc1ccc2c(c1)CCC2)CN1CCN(c2ccccc2F)CC1 (centres unmarked) :: 5.87

// recorded hERG current change (%, negative = inhibition) at 1uM for Cl.OC(COc1ccc(F)cc1)CN1CCN(c2ccccc2F)CC1 (centres unmarked) : -49.5

// recorded hERG current change (%, negative = inhibition) at 1uM for `Cc1nonc1OCCN1CCN(c2ccccc2[N+](=O)[O-])CC1.Cl` : -2.31

// recorded hERG current change (%, negative = inhibition) at 1uM for `COc1ccc(N(CC(=O)NCc2ccc(Cl)cc2)S(=O)(=O)c2c(C)n[nH]c2C)cc1` : 1.42

---

- TGT: human ether-à-go-go-related gene (hERG) potassium channel (human)
- EXPERIMENTAL_DETAILS: primary screen, population patch clamp on CHO cells stably expressing hERG; higher = less effect of the substance
Hit rate of the full screen: of about 310,000 compounds, about 2,200 (0.71%) showed an effect of 50% or more. The effect is printed as a negative number. The sample as a whole holds a higher share of strong results than the screen did.
Examples of compounds with documented hERG current change (%, negative = inhibition) at 1uM follow.

// recorded hERG current change (%, negative = inhibition) at 1uM for `COc1ccccc1Nc1nc(N)nc(CN2CCC(C)CC2)n1` : -37.3%

---

Examples of molecules with documented hERG current change (%, negative = inhibition) at 1uM follow.
- TGT: human ether-à-go-go-related gene (hERG) potassium channel (human, UniProt Q12809)
- EXPERIMENTAL_DETAILS: primary screen, population patch clamp on CHO cells stably expressing hERG; higher = less effect of the substance
- From the text: Briefly, Chinese hamster ovary (CHO) cells stably expressing the hERG channel were dislodged from tissue culture flasks and dispensed into PPC plates. […] Small molecule effects on hERG current density were quantified by […].
Among all 310,000 compounds or so, about 2,200 (0.71%) showed an effect of 50% or more. The effect is printed as a negative number. The sample as a whole holds a higher share of strong results than the screen did.
Hi! Could you send only the number? It should be in %, unit omitted.

c1ccc(CN2CCC(Nc3nc(-c4cccs4)nc4ccccc34)CC2)cc1 :: 10.5
c1ccc(CN2CCC(Nc3nc(-c4ccccc4)nc4ccccc34)CC2)cc1 :: 4.83
CCOc1ccc(N=C2Sc3nc4ccc(C)cc4cc3CN2CCOC)cc1 :: 16.5
CC(C)C(NC(=O)c1c(F)cccc1F)C(=O)NCC(c1ccccc1)N(C)C (stereo not drawn) :: 7.89
COCCN1Cc2cc3cc(C)ccc3nc2SC1=Nc1ccc(OC)cc1 :: 9.8
Cn1c(=O)oc2cc(S(=O)(=O)NCCN3CCN(c4ccccc4F)CC3)ccc21 :: 3.83
CC1(C(=O)NCCc2c[nH]c3ccccc23)C=CC2(CCCCC2)N1C(=O)c1ccccc1 (stereo not drawn) :: 2.59
COC(=O)c1cc(NC(=O)C2(S(=O)(=O)c3ccc(C)cc3)CC2)cc(C(=O)OC)c1 :: 0.157

# next molecule below
// recorded hERG current change (%, negative = inhibition) at 1uM for `c1ccc(CN2CCC(Nc3nc(-c4cccnc4)nc4ccccc34)CC2)cc1` : -74.6
